methodDescription: Hepatic impairment study: atogepant plasma PK
Format: in vivo, human
experimentalConditions: human, plasma, po, 60 mg, mild hepatic impairment, single 60 mg oral dose; read-out: Tmax, median (range)
Protocol: A multicenter, non-randomized, open-label, parallel-group, single-dose study was carried out to evaluate the PK, safety, and tolerability profiles of atogepant in participants with impaired hepatic function and matched healthy participants with normal hepatic function after a single 60-mg oral dose of atogepant. The primary outcome measures were PK parameters of atogepant derived from plasma concentrations. […]
propertyName: Tmax
Form entry: enter the amount, then its unit.

[ask] Answer with reported Tmax of C[C@@H]1[C@H](c2c(F)ccc(F)c2F)C[C@H](NC(=O)c2cnc3c(c2)C[C@@]2(C3)C(=O)Nc3ncccc32)C(=O)N1CC(F)(F)F
[reply] 1.76 h
